The reported measurements were obtained from patent US20070213311A1.

- tested_on: full-length human 11βHSD1 (Homo sapiens)
- Construct: clarified lysate, not purified
- Sequence (P28845 whole entry): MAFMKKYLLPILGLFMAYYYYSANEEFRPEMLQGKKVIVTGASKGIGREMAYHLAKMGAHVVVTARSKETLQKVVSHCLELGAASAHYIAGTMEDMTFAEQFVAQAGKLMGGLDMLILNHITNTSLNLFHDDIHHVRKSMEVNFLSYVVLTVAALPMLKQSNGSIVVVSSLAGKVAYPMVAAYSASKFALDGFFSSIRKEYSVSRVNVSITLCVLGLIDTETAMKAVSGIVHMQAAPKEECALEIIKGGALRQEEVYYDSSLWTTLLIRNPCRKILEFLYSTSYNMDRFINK
- assay_procedure: Enzymatic assay of 11βHSD1 (Scintillation Proximity Assay, clarified lysates of HEK-293 transfectants)
- reported_conditions: SPA, 25 nM 3H-cortisone, 400 μM NADPH, 37° C. for one hour
result_type: IC50

Given the entry O=C1OC2(CCN(C(=O)C(O)c3ccc(Br)cc3F)C2)c2ccccc21 (stereo not shown) , report its measured IC50. < 1000 nM
